- ASSAY PROTOCOL: folding stability dG unfold (combined trypsin and chymotrypsin); higher = more stable

POLYMER SEQUENCE | RESULT UNIT | QUALIFIER | folding stability dG unfold
SAGGSAGGGSISIPGPGPVSATTDPVTKTLVTVTYPTSEVRIPIEGDKFTEAETTPLPPPPALTSAGGSAGG [r6_847_JUSTAS] | kcal/mol | = | 0.708
SAMLPEGERKPFLVKVKIETPEGTPEFEAPVITEPPQKIHVSIDFDIPEGEHKIKIEFFGPKLEFEFDISAG [r14_280_TrMRF] | kcal/mol | = | 2.29
SAGGKKKKKVKIKIEIAIVIPEEDLSEEERKKLAEELAERLKRELAEKLGLSEDEIEEIEVTVYRLPPSAGG [r13_5_TrROS_Hall] | kcal/mol | = | 2.04
SAGGSAGGSAGRMYIIRNPGKKVIIPRGWMPKLQKKNPNVEIEEFESPEDADKAQDKALDSAGGSAGGSAGG [r11_60_TrROS] | kcal/mol | < | -1
SAGGSAGGSAGGMPELTVETEGFPDGSYRVVVTNPGTGELVAVAERPSSTSVADFAKELASAGGSAGGSAGG [r7_633_TrMRF] | kcal/mol | < | -1
SAGGSAGGSAGEVLIVAPAALLKEAIGPGVEVLAVDDDVVVVRVPVPPVPLTDANGNPLPSAGGSAGGSAGG [r11_828_TrMRF] | kcal/mol | = | -0.15
SMTRVKVELLITNPATGETFYYDIEATEEEAEEIAKELEESYPEKNATVTIKKKEVIPVEPPVVLPEGILSA [r9_14_JUSTAS] | kcal/mol | = | 0.815
SAGGRYWKLTTPPDRPLRLVIEPVPLEDTPEEYGSRLYIPNTGKVYYFPLKYAQEILDLPWIERLEPVSAGG [r19_302_TrMRF] | kcal/mol | = | 0.664
SAGAKEITAEELAEIVREFAAALPPDVKEPVTVEITVPLEDGRVLVFKVTVERSPDGVKATVEVSPGASAGG [r19_220_TrMRF] | kcal/mol | = | 3.21
SAGGSAGGSAGGSFDIEQERNPENGYHRVTIDFPNGPPVEIWMPPGSTLEQIEDLAKQFSAGGSAGGSAGGS [r4_205_TrROS] | kcal/mol | = | 0.878
SVVTPYPDGTVVETEPVGDTVLRLVRRPRPLPGGEPVERTTVVLEPVSTRPLPNGELVTERPVLEEEHHHSA [r9_235_JUSTAS] | kcal/mol | < | -1

###

- ASSAY PROTOCOL: folding stability dG unfold (combined trypsin and chymotrypsin); higher = more stable
Record True whenever folding stability dG unfold is at 1 kcal/mol or higher; record False when lower.

POLYMER SEQUENCE | CLASSIFICATION
SAGGSAEWKEKALKMGAKEVKEDPANGYLYVTFPGPGRTIVIWKKEEDGTVTKVKTVSPSVKVEYKSAGGSA [r15_247_JUSTAS] | False
SAGGSIVDRIRKILKEYGYTAQVERNGDGITIVVQFNKEQRKKIVSEIQEDFGYPIKIEVMPPGQELSAGGS [r16_514_TrROS] | True
SAKFRVTEIHPNGNNFEIRIERYDPNGEKKKLPIPVNADNMQIDEVDGDKITIYFPNNGREITLPLEDLSAG [r14_947_TrROS] | False
SAGGSAGGSAGGLVLTSTSFTSSNTMVVTTTTLTTNADGSLSTTSTTTTTPVPPPKPGLPSAGGSAGGSAGG [r11_728_JUSTAS] | False
SAGSEVTLEITLTREVPSGKPVTLTETKTVPLAPSVPVEEVIKALKSPEWTAKVTLYTDGTPVTELTLDSAG [r5_278_JUSTAS] | False
SAGGSAGGSAGPEVIEIKNPKTGKTYRIVRNKDGKLLIYNEATGKVAVFKDGKIELVPAPSAGGSAGGSAGG [r17_476_TrROS_Hall] | True
SAMDLLRERGYDVEEVTKLRDEVLPNGTIVTLYEVTVRLPDRVITTPIKVSGESEEEAEKLAYETVARESAG [r14_726_JUSTAS] | False
SAGSITTTDGNISRSVTYIPGLNLYLVTSTYPTSVSVDLVTEEGGTLTTTPVSTTPLPLPASSLSTTASAGG [r19_328_JUSTAS] | False
SAGGSAGGSAGGSGSTTPIPATGATLTTETLPDGSPLYTLTDPATGATTTYPPGAPVGLSAGGSAGGSAGGS [r4_158_JUSTAS] | False
SDKLAKLLEDELEKAGYEVVSVEVRYDPEKGLLYVNALVRRKDDPTWYRVRAVYNPETDELLEVKIEPLPSA [r9_814_TrMRF] | True
SGMEEIKIEVLSTETDESGTTYTETKIVLPDGKVIEATMTTTTVPDAAGNPVAVETLTLKDKTYTRTIPLSA [r9_271_JUSTAS] | False
SAGGMVIRVRFRETNETVTLSPEVLEALKRGDPDALRALPEEQREALARIERVEIRPAPPVRVLPEEESAGG [r13_233_TrROS_Hall] | True
SMKITLEKGNYKIEIYKHPETGEIIAKVYDKNGKLVAVAHIKIEVEPDKDGKKIIKKIEIHVHILKEDPKSA [r9_262_TrMRF] | True
SAGGGSFINISKKEIAEAISKLIGKDYPLEDVKVSVTTLPENKTIINVEIKLPNTTETLYIPILFDVSAGGS [r16_42_TrMRF] | True
SAGGMTSTLTVTLTVSPSTSPEEAAERAAEALEAAHPDRTVVIESITVTPATGKVVATIKVVGDTGASAGGS [r8_26_JUSTAS] | True
SAGGARVFEVTFPDGSRARIVLLPDGTLLLETDSLDNLVALLEALGVELVSIRRHPDGRVLAVARLPPSAGG [r19_257_TrMRF] | True
SAGGSAGGSMIVVPESVSPEEAEATARQVAQELGISPDTPLEVEIKEVKTGENSVYEIRVTLRSAGGSAGGS [r12_252_JUSTAS] | False
SAGGMGISTEPEISFERKTLPDGTYVLEIHTTTTTTDSSGVVTTTTSTKTVKFSPDNPEKIKELIEALSAGG [r13_412_JUSTAS] | True
SAGGMVEVTYDPETGTLTILLPSPSGTLGPEAVEAAARLIRELYPEAEVEVEPLPDNTVRLRVRFPGGSAGG [r13_291_TrMRF] | True

###

- ASSAY PROTOCOL: folding stability dG unfold from trypsin proteolysis; higher = more stable
Our labelling divides records by folding stability dG unfold into ranges: 1 = under 0.6 kcal/mol, 2 = from 0.6 kcal/mol up to 2 kcal/mol, 3 = 2 kcal/mol and over

POLYMER SEQUENCE | CLASSIFICATION
SAGGSAGGSASVTTTTTPLPGDRTLTTTTYPDGTVKVTTYTVDTATGTVTSTSTTLSPATLTSAGGSAGGSA [r18_325_JUSTAS] | 2
SAGGSAGGSAGGSMATITPEGDKYLVTITNPDGSTTTKEFDSLEEVKKLPSSYPIEFSDSAGGSAGGSAGGS [r4_447_JUSTAS] | 3
SAGGGSVTVSLEGNTTYVRISREDGPERTYTFPQPNGEPLTFTEAPGRPGLITITRPATGEPVVLALSAGGS [r16_198_JUSTAS] | 1
SAGGMGFEKVGTFKLEDDVIVEIYKGPEKKLVAKVYFPKTGKVIEDPGHPDESIEELIERIKAIAEEESAGG [r13_624_TrMRF] | 3
SAGSAKELAKEIADTIADEMQDRHPGFKPTEVEVKEIEVNPENGWVKINIEMRFPNGKPIWKPEITIPSAGG [r19_53_TrROS] | 1
KKKILIFITGDNPELAERIRKELEELGYDVEVKVVTTPEEMEKAIEEAEKTDIVIVIHLPPALPLSPELAFS [r1_497_TrMRF] | 3
SAGGSAGGSNMPIKNVELHPLPNGWYLIKIRYGGKTRTFLFPPGAPFEIPLPPGMEIDIYPLNSAGGSAGGS [r12_373_TrROS] | 3
SAGGSAMVDKTMTEEEARAFAEASGDPRVTVEPVENPNNDPNAPKKWRITVDGSGTPGSTILFTSPSAGGSA [r15_428_JUSTAS] | 1
SAGMETVVTYDPSNGTVTTTTTVFAPDGTPLGSLSTTTPIGGGTITYTTITIDPETGTVTTTTTAYPGASAG [r5_34_JUSTAS] | 3
SAGGMKLEILEKSENRIIIRTDEGKIYIAPEIVKKLKEKGGNIKPTLDEIIEWLEKNNIPAEDAVFGDSAGG [r13_610_TrMRF] | 2
SAGGSAGGSAGEEVLTLTFPVPPDAPPPGLEAIRESLPGLEDVELDAEELPDGTVRVVLSSAGGSAGGSAGG [r17_205_TrMRF] | 1
SAGGSAGGKISKEDLEKILEAIKEGKPITIVKVKVEKNENGEEVEKVEVIKTFTAEELKKLGIESAGGSAGG [r6_402_TrROS_Hall] | 2
SAGGSAGGFFHIEIEWRPVKLEDLPEEDAANGKELKPGDEIWVIVKIEIYPMPPPKFDKDGELNSAGGSAGG [r6_547_TrROS] | 3
SAGGSAGGMIKYSEEAPDPSYRTEVEVTPVPGKVAIKTTTYRNENGVWTAEESTSVVSPEALLSSAGGSAGG [r6_778_JUSTAS] | 1
SAGGSAGGSALKPGEPITIIFLFKEPNGRPYIMVIEIEVNPDGGIKIKGMEMITLEDLDKISAGGSAGGSAG [r3_212_TrROS] | 3
SAGPADPGFLGTRTVPHPDGVVTVDVYRFAGTRVLITITLPDSTVPVEDPVESEEEALAFADAVVAEVGLSA [r9_758_JUSTAS] | 2
SAGGSAGGGSISIPGPGPVSATTDPVTKTLVTVTYPTSEVRIPIEGDKFTEAETTPLPPPPALTSAGGSAGG [r6_847_JUSTAS] | 1

The reported numbers originate from the supplement of paper PMC12764529.
